Where do these numbers come from? They come from PubChem BioAssay.

Listing: composite z-score of selected compounds
- target-of-assay: Torsin-1A-interacting protein 1 (Homo sapiens)
- experiment-summary: LAP1 binders from COS7 cell lysate, primary screen, small-molecule microarray, 635/667 nm fluorescence (AID 1116)
- test-parameters: COS7-hLAP1 lysate binding, 635 nm fluorescence, higher = more signal
Give the value as a plain number.

Reference set (2 entries):
| smiles-entry | target-of-assay | experimental-result |
| --- | --- | --- |
| CCO[C@H](c1cc(OC)cc([N+](=O)[O-])c1OC)[C@H](C)C=CCC(=O)OC | Torsin-1A-interacting protein 1 (Homo sapiens) | 0.11 |
| CON=C[C@@H](NS(=O)(=O)c1ccc(C)cc1)[C@H](C)C=CCC(=O)OC | Torsin-1A-interacting protein 1 (Homo sapiens) | 0.22 |

// query composite z-score value for entry `O=C1C=C[C@@H](O)[C@@H]2[C@@H]3C(=O)N(C[C@@H]4CCCO4)C(=O)[C@@H]3CC[C@@H]12` 0.206

// query composite z-score value for entry `CCCNC(=O)OC[C@H]1O[C@H](CCON=Cc2ccc(C(=O)N3[C@H](c4ccc(C)cc4)[C@@H](C)CC[C@H]3C(=O)OC)cc2)C=C[C@@H]1Oc1ccc(OC)cc1` 0.943
